# Target entity: human farnesyl pyrophosphate synthase (FPPS) (Homo sapiens)
# Construct: made in house
# Sequence (P14324 67-419 limits assumed): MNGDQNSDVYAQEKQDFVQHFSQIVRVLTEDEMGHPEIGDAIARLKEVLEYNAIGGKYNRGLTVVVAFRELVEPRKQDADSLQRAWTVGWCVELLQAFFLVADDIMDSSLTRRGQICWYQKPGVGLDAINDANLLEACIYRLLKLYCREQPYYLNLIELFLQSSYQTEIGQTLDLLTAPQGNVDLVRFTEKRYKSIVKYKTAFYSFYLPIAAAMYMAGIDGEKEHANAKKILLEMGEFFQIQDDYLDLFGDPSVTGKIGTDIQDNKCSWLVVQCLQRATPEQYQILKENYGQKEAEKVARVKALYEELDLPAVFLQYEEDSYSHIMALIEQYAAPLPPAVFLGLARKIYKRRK
# Procedure text: FPPS inhibition, in vitro, recombinant enzyme
# Assay type: biochemical
# Particulars: GPP and IPP 10 μM each, 37° C., read-out: FFPPS nM IC50
Measured attribute: IC50

1. O=P(O)(O)C(F)(Cc1cnc2ccccn12)P(=O)(O)O [Ox-14]
2.5 nM

====

# Procedure text: Hydroxyapatite (HAP) affinity by chromatographic profiling on HAP column
# Format: binding
# Particulars: phosphate gradient 1 mM to 1000 mM, pH 6.8
Recorded HAP mineral binding (retention time in mins) values for a group of compounds are listed next.
Measured attribute: HAP mineral binding (retention time in mins) (min)

1) O=P(O)(O)C(O)(Cc1cnc2ccccn12)P(=O)(O)O [Minodronate]
10.33
2) O=P(O)(O)C(F)(Cc1cnc2ccccn12)P(=O)(O)O
6.17
3) O=P(O)(O)C(O)(Cc1cccnc1)P(=O)(O)O [Risedronate]
9.97
